- System: Hypothalamus
- Measurement Description: Effect on neurosteroid biosynthesis assessed as conversion of [3H]pregnenolone to progesterone in frog hyphalamic explats at 1 uM after 2 hrs relative control
- Format: functional, Pelophylax lessonae
Quantity Kind: Activity (%)
Unit % implied. Number only.

Example cases with answers are listed next.
Value of Activity reported for the substance H-QATVGDVNTDRPGLLDLK-OH [QATVGDVNTDRPGLLDLK] is 382.7

The substance listed as H-RAGLLDLK-OH has a reported Activity of 265.2

Kindly note the recorded Activity for H-RPGALDLK-OH , which is 104.7

H-GLLDLK-OH yielded Activity of 266.6

Memo: H-RPGLLDAK-OH , reported Activity: 103.2

More entries:
Lab note: measured Activity of H-RPALLDLK-OH was 99

Activity reported for this substance H-PGLLDL-OH : 137

Activity for H-RPGLLDLK-OH is 281.7
